test system: SNB-19; test: NCI 60 cell panel SRB screen; type: cell-based; settings: Homo sapiens; SNB-19, 5 log dose, 48 h; read-out: LC50 (the source's name)

| Molecule | CC50 |
| --- | --- |
| O=C(Nc1ccccc1)Nc1ccc(Oc2nnc(Cl)c3ccccc23)cc1 [Compound 13a] | > 25 µM |
| O=C(Nc1ccc(Cl)cc1)Nc1ccc(Oc2nncc3ccccc23)cc1 | 58.3 µM |
| COc1cccc(NCc2nnc(Nc3ccc(Cl)cc3)c3ccccc23)c1 [Compound 16d] | > 25 µM |

###

Below: a set of entries, each annotated with reported melting point.

| Molecule | melting point |
| --- | --- |
| Cc1nnc(Oc2ccc(NC(=O)Nc3ccc(Cl)c(C(F)(F)F)c3)cc2)c2ccccc12 | 150 to 152 °C |
| O=C(Nc1ccc(Cl)cc1)Nc1ccc(Nc2nnc(Cl)c3ccccc23)cc1 [Compound 12b] | 236 to 238 °C |
| O=C(c1ccco1)N1CCN(c2nncc3ccccc23)CC1 | 90 to 92 °C |

###

Below: a set of entries, each annotated with reported activity at 10 µM.
tested on: COLO 205; test: NCI 60 cell panel SRB screen; assay type: cell-based; conditions: Homo sapiens; COLO 205, single dose 10 μM; read-out: percent cell growth promotion
Recorded endpoint: activity at 10 µM (%)

| Compound | Unit of measurement | Measured result |
| --- | --- | --- |
| CCOC(=O)N1CCN(c2nnc(C)c3ccccc23)CC1 | % | 109 |
| Cc1nnc(Nc2ccc(NC(=O)c3ccc(Cl)cc3)cc2)c2ccccc12 | % | 90.3 |
| Cc1nnc(N2CCN(c3ccccn3)CC2)c2ccccc12 | % | 113 |
| Clc1ccc(Nc2nnc(CNc3ccccc3)c3ccccc23)cc1 [Compound 16a] | % | 11.9 |
| Cc1nnc(Nc2ccc(NC(=O)Nc3ccc(Cl)cc3)cc2)c2ccccc12 | % | 28.2 |
| COc1cccc(NCc2nnc(Nc3ccc(Cl)cc3)c3ccccc23)c1 [Compound 16d] | % | -22.2 |
| O=C(Nc1ccc(Nc2nncc3ccccc23)cc1)c1ccc(Cl)cc1 | % | 104 |
| O=C(Nc1ccccc1)Nc1ccc(Oc2nnc(Cl)c3ccccc23)cc1 [Compound 13a] | % | 35.1 |
| O=C(Nc1ccc(Cl)cc1)Nc1ccc(Oc2nncc3ccccc23)cc1 | % | 11.9 |
| O=C(Nc1ccc(Cl)cc1)Nc1ccc(Nc2nncc3ccccc23)cc1 | % | 18.6 |
| Cc1nnc(Oc2ccc(NC(=O)Nc3ccc(Cl)cc3)cc2)c2ccccc12 | % | 87.4 |

###

test system: CCRF-CEM; assay: NCI 60 cell panel SRB screen; type: cell-based, human; conditions: Homo sapiens, single dose 10 μM, read-out: percent cell growth promotion
Below: a set of entries, each annotated with reported activity at 10 µM.

| Compound | activity at 10 µM |
| --- | --- |
| Clc1ccc(Nc2nnc(CNc3ccccc3)c3ccccc23)cc1 [Compound 16a] | 12.4% |
| Cc1nnc(Nc2ccc(NC(=O)Nc3ccc(Cl)cc3)cc2)c2ccccc12 | 11% |
| CCOC(=O)N1CCN(c2nnc(C)c3ccccc23)CC1 | 103% |
| Cc1nnc(N2CCN(c3ccccn3)CC2)c2ccccc12 | 102% |
| Cc1nnc(N2CCN(c3ccccc3)CC2)c2ccccc12 | 103% |
| Cc1nnc(Nc2ccc(NC(=O)c3ccc(Cl)cc3)cc2)c2ccccc12 | 91% |
| Cc1nnc(Oc2ccc(NC(=O)Nc3ccc(Cl)cc3)cc2)c2ccccc12 | 40.2% |
| O=C(Nc1ccccc1)Nc1ccc(Oc2nnc(Cl)c3ccccc23)cc1 [Compound 13a] | 47.6% |
| Cc1nnc(N2CCN(c3ccccc3F)CC2)c2ccccc12 | 99.7% |
| CCOC(=O)N1CCN(c2nncc3ccccc23)CC1 | 96.9% |

###

tested on: EKVX
Below: a set of entries, each annotated with reported GI50.
Recorded endpoint: GI50 (µM)

| Compound | Unit of measurement | Measured result |
| --- | --- | --- |
| O=C(Nc1ccc(Cl)cc1)Nc1ccc(Oc2nncc3ccccc23)cc1 [Compound 7b] | µM | 1.61 |
| O=C(Nc1ccccc1)Nc1ccc(Oc2nnc(Cl)c3ccccc23)cc1 [Compound 13a] | µM | 2.31 |
| COc1cccc(NCc2nnc(Nc3ccc(Cl)cc3)c3ccccc23)c1 [Compound 16d] | µM | 0.58 |
| Cc1nnc(Nc2ccc(NC(=O)Nc3ccc(Cl)cc3)cc2)c2ccccc12 [Compound 6e] | µM | 3.47 |
| Clc1ccc(Nc2nnc(CNc3ccccc3)c3ccccc23)cc1 [Compound 16a] | µM | 1.61 |
| Clc1ccc(Nc2nnc(COc3ccccc3)c3ccccc23)cc1 [Compound 17a] | µM | 0.67 |

###

tested on: K-562
Recorded endpoint: GI50 (µM)

| Compound | Experimental target | Recorded endpoint | Measured result |
| --- | --- | --- | --- |
| O=C(Nc1ccc(Cl)cc1)Nc1ccc(Oc2nncc3ccccc23)cc1 | K-562 | GI50 | 0.37 |
| O=C(Nc1ccc(Cl)cc1)Nc1ccc(Nc2nncc3ccccc23)cc1 | K-562 | GI50 | 1.68 |
| O=C(Nc1ccccc1)Nc1ccc(Oc2nnc(Cl)c3ccccc23)cc1 [Compound 13a] | K-562 | GI50 | 6.21 |
| Cc1nnc(Nc2ccc(NC(=O)Nc3ccc(Cl)cc3)cc2)c2ccccc12 | K-562 | GI50 | 2.2 |

###

tested on: MDA-MB-435; experiment: NCI 60 cell panel SRB screen; type: cell-based; conditions: Homo sapiens, MDA-MB-435, read-out: percent cell growth promotion
Recorded endpoint: activity at 10 µM (%)

| Molecule | Experimental target | Measured result |
| --- | --- | --- |
| Cc1nnc(N2CCN(c3ccccc3F)CC2)c2ccccc12 [Compound 8h] | MDA-MB-435 | 93.5 |
| O=C(Nc1ccc(Cl)cc1)Nc1ccc(Oc2nncc3ccccc23)cc1 [Compound 7b] | MDA-MB-435 | -33.3 |
| COc1cccc(NCc2nnc(Nc3ccc(Cl)cc3)c3ccccc23)c1 [Compound 16d] | MDA-MB-435 | -10.3 |
| O=C(Nc1ccc(Nc2nncc3ccccc23)cc1)c1ccc(Cl)cc1 [Compound 5b] | MDA-MB-435 | 103 |

###

system: HCT-116; test: In vitro cytotoxic activity, SRB assay; type: cell-based; conditions: Homo sapiens; HCT-116, 48h
pIC50: −log10 of the molar value.

| Chemical string | Experimental target | pIC50 |
| --- | --- | --- |
| Cc1nnc(Nc2ccc(NC(=O)c3ccccc3)cc2)c2ccccc12 | HCT-116 | 4.82 |
| Cc1nnc(Nc2ccc(NC(=O)Nc3ccccc3)cc2)c2ccccc12 | HCT-116 | 4.24 |
| Cc1nnc(Nc2ccc(NC(=O)Nc3ccc(Cl)c(C(F)(F)F)c3)cc2)c2ccccc12 | HCT-116 | 5.51 |
